# SYSTEM UNDER TEST: 2-5A-dependent ribonuclease (Homo sapiens)
# MEASUREMENT DESCRIPTION: Activation of human recombinant Rnase L assessed as cleavage of FRET RNA probe
What pEC50 was measured for each of the following?
Give bare numbers, as −log10 of the molar value.

O=c1[nH]c(-c2ccc(O)cc2)nc2sc3c(c12)CCCC3; 4.59
CCCCOC(=O)c1ccc(NC(=S)NC(NC(=O)CC)C(Cl)(Cl)Cl)cc1 (configuration not stated); 4.05
CCCCOC(=O)c1ccc(NC(=S)NC(NC(C)=O)C(Cl)(Cl)Cl)cc1 (configuration not stated); 4.00

// for each molecule in input: emit pEC50
1. O=c1[nH]c(-c2cccc([N+](=O)[O-])c2)nc2sc3c(c12)CCCC3
2. Cc1ccc(NC2=NC(=O)/C(=C/c3cccc(O)c3)S2)c(Cl)c1
3. O=c1[nH]c(-c2cccc(O)c2)nc2sc3c(c12)CCCC3
4. Cc1c(Cl)cccc1NC1=NC(=O)/C(=C/c2ccc([N+](=O)[O-])cc2)S1

[out]
1: 4.66; 2: 4.31; 3: 4.66; 4: 4.30

---

# SYSTEM UNDER TEST: 2-5A-dependent ribonuclease (Homo sapiens)
# Sequence (Q05823 whole entry): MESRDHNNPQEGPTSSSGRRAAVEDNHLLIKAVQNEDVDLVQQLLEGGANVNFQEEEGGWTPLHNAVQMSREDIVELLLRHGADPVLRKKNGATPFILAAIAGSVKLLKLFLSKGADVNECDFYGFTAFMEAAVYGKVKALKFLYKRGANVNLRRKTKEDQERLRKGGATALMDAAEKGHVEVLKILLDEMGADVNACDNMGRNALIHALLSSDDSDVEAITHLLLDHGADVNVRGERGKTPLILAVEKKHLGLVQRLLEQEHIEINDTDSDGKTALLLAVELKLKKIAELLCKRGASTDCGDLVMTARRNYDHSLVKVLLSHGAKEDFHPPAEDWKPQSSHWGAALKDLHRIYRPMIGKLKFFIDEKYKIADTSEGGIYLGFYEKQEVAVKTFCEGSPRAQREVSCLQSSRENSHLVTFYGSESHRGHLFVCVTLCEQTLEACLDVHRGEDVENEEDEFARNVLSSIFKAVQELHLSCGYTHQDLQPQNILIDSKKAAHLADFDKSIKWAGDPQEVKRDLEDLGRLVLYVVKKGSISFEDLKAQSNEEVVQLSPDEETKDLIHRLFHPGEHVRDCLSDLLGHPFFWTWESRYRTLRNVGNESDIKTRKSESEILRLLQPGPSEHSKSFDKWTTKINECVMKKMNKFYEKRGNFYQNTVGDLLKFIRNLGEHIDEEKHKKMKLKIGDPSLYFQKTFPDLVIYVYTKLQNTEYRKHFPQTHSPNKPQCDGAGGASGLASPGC
# MEASUREMENT DESCRIPTION: Displacement of 5'-phosphorylated, 2',5'-oligoadenylate from human recombinant RNase L assessed as decrease in resonance by surface plasma resonance
ASSAY METRIC: pKd
One number for each entry, as −log10 of the molar value.

Some solved cases for reference:
Nc1ncnc2c1ncn2[C@@H]1O[C@H](CO[P@](=O)(O)O[C@@H]2[C@H](O)[C@@H](CO[P@](=O)(O)O[C@@H]3[C@H](O)[C@@H](CO[P@](=O)(O)O[P@@](=O)(O)OP(=O)(O)O)O[C@H]3n3cnc4c(N)ncnc43)O[C@H]2n2cnc3c(N)ncnc32)[C@@H](O)[C@H]1O; 9.66
CCOC(=O)C1=C(Nc2ccccc2)S/C(=C\c2cccc(O)c2)C1=O; 4.74

Let us examine a further case.
[in] I have this compound here, O=c1[nH]c(-c2cccc(O)c2)nc2sc3c(c12)CCCC3 , and I need its recorded pKd.
[out] 4.92

---

# SYSTEM UNDER TEST: 2-5A-dependent ribonuclease (Homo sapiens, UniProt Q05823)
# MEASUREMENT DESCRIPTION: Activation of human recombinant Rnase L assessed as cleavage of FRET RNA probe
ASSAY METRIC: pEC50
One number for each entry, as −log10 of the molar value.

CCOC(=O)C1=C(Nc2ccc(Cl)cc2)S/C(=C\c2cccc(O)c2)C1=O; 4.31
CC(=O)c1ccc(NC(=S)NC(NC(=O)Cc2ccccc2)C(Cl)(Cl)Cl)cc1 (stereo not given); 4.10

// for each molecule in input: emit pEC50
1. CCOC(=O)C1=C(Nc2ccccc2)S/C(=C\c2cccc(O)c2)C1=O
2. COc1ccc(Cl)cc1NC(=O)c1cc2c(C)nn(-c3ccccc3)c2s1
3. Nc1ncnc2c1ncn2[C@@H]1O[C@H](CO[P@](=O)(O)O[C@@H]2[C@H](O)[C@@H](CO[P@](=O)(O)O[C@@H]3[C@H](O)[C@@H](CO[P@](=O)(O)O[P@@](=O)(O)OP(=O)(O)O)O[C@H]3n3cnc4c(N)ncnc43)O[C@H]2n2cnc3c(N)ncnc32)[C@@H](O)[C@H]1O

[out]
1. 4.59
2. 4.32
3. 9.30
